System: OVCAR-3 ovarian
Experiment: NCI-60 one-dose screen, 48 h (100 = growth as untreated, 0 = no growth, -100 = all killed)
Details: 10 µM
Method: Growth inhibition of the OVCAR-3 human tumor cell line is measured as a screen for anti-cancer activity. Cells are grown in 96 well plates and exposed to the test compound for 48 hours. Compounds are tested at a single concentration, which is 10^-5 M for most compounds. The reported endpoint is percent growth (GI% or GIPRCNT), where numbers from 0 - 100% represent growth inhibition, and numbers from -100% - 0 represent cell death. For example, a value of 40 represents 60% growth inhibition. […]
Compounds without any hit were thinned out: in the full panel of roughly 83,000, 20% have a hit.
value-type: growth (%)
One number for each entry, in %.

CC(C)=NNc1ccc([N+](=O)[O-])cc1[N+](=O)[O-] : 104
O=C1OC(c2ccc(F)cc2)CC1CN1CCOCC1 (configuration not stated) : 101
CC(O)COc1ccc(-c2ccccc2)cc1 (configuration not stated) : 108
COc1cccc(COC(=O)Nc2ccccc2)c1OC : 111
C#C[C@H]1CCCCCC1O (some centres not stated) : 113

List the reported growth of each compound below.
1. CCOC(=O)C(O)C(O)C(=O)OCC (configuration not stated)
2. CCNc1nc2c(cnn2C)c(=O)[nH]1
3. COC(=O)c1ccccc1Br

Outgoing:
1. 107
2. 109
3. 106

List the reported growth of each compound below.
1. CS(=O)CC1=NC(=N)N=C1CS(C)=O (configuration not stated)
2. O=[N+]([O-])c1ccc(O)c(S(=O)(=O)O)c1
3. CC(=O)Nc1cccc(Cl)c1C
4. N#C/C(=C\c1cc(O)c(O)c(O)c1)C(N)=O

Outgoing:
1. 118
2. 109
3. 102
4. 107

Origin of the recorded values: PubChem BioAssay (NCI)
